- assayOverview: Thermodynamic solubility of compound in buffer at 298 +/- 0.1 K after 24 hrs by shake flask method
- Assay type: physicochemical
- measurementContext: read-out: Therm_solubility
Class assignment keyed on solubility thermodynamic at 24 h, ranges interval 1: < 3 mM; interval 2: ≥ 3 mM and < 8 mM; interval 3: ≥ 8 mM

compound="Cc1ccc(Nc2nc(CC(C)NC3CC(C)(C)NC(C)(C)C3)ns2)cc1 (configuration not stated)" assignedlabel="interval 3"
compound="Cc1ccc(Nc2nc(CC(C)O)ns2)cc1 (configuration not stated)" assignedlabel="interval 1"
compound="CSc1cccc(Nc2nc(CC(C)NC3CC(C)(C)NC(C)(C)C3)ns2)c1 (configuration not stated)" assignedlabel="interval 3"
compound="Cc1cc(Nc2nc(CC(C)NC3CC(C)(C)NC(C)(C)C3)ns2)no1 (configuration not stated)" assignedlabel="interval 3"
compound="Cc1ccc(Nc2nc(CC(C)NC3CC(C)(C)NC(C)(C)C3)ns2)cc1Cl (configuration not stated)" assignedlabel="interval 2"
compound="CC(Cc1nsc(Nc2ccc(Br)cc2)n1)NC1CC(C)(C)NC(C)(C)C1 (configuration not stated)" assignedlabel="interval 2"
compound="Cc1ccc(Cl)cc1Nc1nc(CC(C)O)ns1 (configuration not stated)" assignedlabel="interval 1"
compound="CC(Cc1nsc(Nc2ccc(F)cc2)n1)NC1CC(C)(C)NC(C)(C)C1 (configuration not stated)" assignedlabel="interval 3"
compound="CC(Cc1nsc(NC2CC2)n1)NC1CC(C)(C)NC(C)(C)C1 (configuration not stated)" assignedlabel="interval 3"
compound="CC(O)Cc1nsc(Nc2ccc(F)cc2)n1 (configuration not stated)" assignedlabel="interval 2"
compound="CC(Cc1nsc(Nc2ccc(F)c(Cl)c2)n1)NC1CC(C)(C)NC(C)(C)C1 (configuration not stated)" assignedlabel="interval 3"
compound="CC(O)Cc1nsc(Nc2ccc(Cl)cc2)n1 (configuration not stated)" assignedlabel="interval 1"
compound="CC(Cc1nsc(Nc2ccc(Cl)cc2)n1)NC1CC(C)(C)NC(C)(C)C1 (configuration not stated)" assignedlabel="interval 2"
compound="Cc1ccc(Nc2nc(CC(C)O)ns2)cc1Cl (configuration not stated)" assignedlabel="interval 1"
compound="CC(Cc1nsc(Nc2ccc(Cl)c(Cl)c2)n1)NC1CC(C)(C)NC(C)(C)C1 (configuration not stated)" assignedlabel="interval 2"
compound="Cc1ccc(Cl)cc1Nc1nc(CC(C)NC2CC(C)(C)NC(C)(C)C2)ns1 (configuration not stated)" assignedlabel="interval 2"

* * *

- assayOverview: 1-octanol/buffer distribution co-efficient, log D of compound at pH 7.4 at 298 K after 24 hrs by shake flask method
- Type: physicochemical
# logD at 24 h listing for each entry below
measuredAttribute: logD at 24 h

compound="CC(O)Cc1nsc(Nc2ccc(Cl)cc2)n1 (stereo not drawn)" measuredattribute="logD at 24 h" reading=2.58
compound="CC(Cc1nsc(Nc2ccc(Cl)c(Cl)c2)n1)NC1CC(C)(C)NC(C)(C)C1 (stereo not drawn)" measuredattribute="logD at 24 h" reading=1.1
compound="CC(Cc1nsc(NC2CC2)n1)NC1CC(C)(C)NC(C)(C)C1 (stereo not drawn)" measuredattribute="logD at 24 h" reading=0.0828

* * *

# K listing for each entry below
- assayOverview: 1-octanol/buffer partition co-efficient of compound in neutral form at pH 7.4 at 298 K after 24 hrs by shake flask method
- Format: physicochemical
- measurementContext: pH 7.4, 24 h
measuredAttribute: K (×10⁴ No_unit)

molecule="CC(Cc1nsc(Nc2ccc(F)cc2)n1)NC1CC(C)(C)NC(C)(C)C1 (stereo not drawn)" valueunits="×10⁴ No_unit" reading=5.06
molecule="Cc1ccc(Nc2nc(CC(C)NC3CC(C)(C)NC(C)(C)C3)ns2)cc1Cl (stereo not drawn)" valueunits="×10⁴ No_unit" reading=7.31

* * *

- assayOverview: 1-octanol/buffer partition co-efficient of compound in neutral form at pH 7.4 at 298 K after 24 hrs by shake flask method
- Format: physicochemical
- measurementContext: pH 7.4, 24 h
# K listing for each entry below
measuredAttribute: K

compound="COc1ccc(Nc2nc(CC(C)O)ns2)cc1 (stereo unspecified)" measuredattribute=K reading=205
compound="CC(O)Cc1nsc(Nc2ccc(F)cc2)n1 (stereo unspecified)" measuredattribute=K reading=316
compound="CC(O)Cc1nsc(Nc2ccc(Cl)c(Cl)c2)n1 (stereo unspecified)" measuredattribute=K reading=610
compound="CC(O)Cc1nsc(Nc2ccc(F)c(Cl)c2)n1 (stereo unspecified)" measuredattribute=K reading=226

* * *

# K listing for each entry below
- assayOverview: 1-hexane/buffer partition co-efficient of compound in neutral form at pH 7.4 at 298 K after 24 hrs by shake flask method
- Type: physicochemical
- measurementContext: pH 7.4, 24 h
measuredAttribute: K

compound="Cc1ccc(Nc2nc(CC(C)O)ns2)cc1Cl (stereo unspecified)" measuredattribute=K reading=1.68
compound="CC(Cc1nsc(Nc2ccc(Cl)c(Cl)c2)n1)NC1CC(C)(C)NC(C)(C)C1 (stereo unspecified)" measuredattribute=K reading=72.3
compound="CC(O)Cc1nsc(Nc2ccc(F)cc2)n1 (stereo unspecified)" measuredattribute=K reading=0.32
compound="CC(O)Cc1nsc(Nc2ccc(Cl)c(Cl)c2)n1 (stereo unspecified)" measuredattribute=K reading=0.17
compound="Cc1ccc(Nc2nc(CC(C)NC3CC(C)(C)NC(C)(C)C3)ns2)cc1Cl (stereo unspecified)" measuredattribute=K reading=20.6
compound="Cc1cc(Nc2nc(CC(C)O)ns2)no1 (stereo unspecified)" measuredattribute=K reading=0.18
compound="COc1ccc(Nc2nc(CC(C)O)ns2)cc1 (stereo unspecified)" measuredattribute=K reading=0.58
compound="CSc1cccc(Nc2nc(CC(C)NC3CC(C)(C)NC(C)(C)C3)ns2)c1 (stereo unspecified)" measuredattribute=K reading=92.9
compound="Cc1ccc(Nc2nc(CC(C)O)ns2)cc1 (stereo unspecified)" measuredattribute=K reading=0.31
compound="CSc1cccc(Nc2nc(CC(C)O)ns2)c1 (stereo unspecified)" measuredattribute=K reading=0.48
compound="CC(Cc1nsc(NC2CC2)n1)NC1CC(C)(C)NC(C)(C)C1 (stereo unspecified)" measuredattribute=K reading=655.5
compound="CC(Cc1nsc(Nc2ccc(F)c(Cl)c2)n1)NC1CC(C)(C)NC(C)(C)C1 (stereo unspecified)" measuredattribute=K reading=42
compound="Cc1ccc(Cl)cc1Nc1nc(CC(C)NC2CC(C)(C)NC(C)(C)C2)ns1 (stereo unspecified)" measuredattribute=K reading=112.8
compound="Cc1cc(Nc2nc(CC(C)NC3CC(C)(C)NC(C)(C)C3)ns2)no1 (stereo unspecified)" measuredattribute=K reading=258.6
compound="Cc1ccc(Cl)cc1Nc1nc(CC(C)O)ns1 (stereo unspecified)" measuredattribute=K reading=0.56
compound="Cc1ccc(Nc2nc(CC(C)NC3CC(C)(C)NC(C)(C)C3)ns2)cc1 (stereo unspecified)" measuredattribute=K reading=89.3

* * *

- assayOverview: Permeability of compound at 5 mM using lipid layer at pH 7.4 at 298 K by spectrophotometric method
- Assay type: ADME
- measurementContext: not told
measuredAttribute: Papp at 5000 µM

compound="CSc1cccc(Nc2nc(CC(C)NC3CC(C)(C)NC(C)(C)C3)ns2)c1 (centres undefined)" reading="18.2 ×10⁻⁶ cm/s"
compound="CC(Cc1nsc(Nc2ccc(F)cc2)n1)NC1CC(C)(C)NC(C)(C)C1 (centres undefined)" reading="18.6 ×10⁻⁶ cm/s"
compound="CC(Cc1nsc(NC2CC2)n1)NC1CC(C)(C)NC(C)(C)C1 (centres undefined)" reading="6.8 ×10⁻⁶ cm/s"
compound="CC(Cc1nsc(Nc2ccc(Cl)c(Cl)c2)n1)NC1CC(C)(C)NC(C)(C)C1 (centres undefined)" reading="26.1 ×10⁻⁶ cm/s"
compound="CC(Cc1nsc(Nc2ccc(F)c(Cl)c2)n1)NC1CC(C)(C)NC(C)(C)C1 (centres undefined)" reading="30.9 ×10⁻⁶ cm/s"
compound="CC(Cc1nsc(Nc2ccc(Cl)cc2)n1)NC1CC(C)(C)NC(C)(C)C1 (centres undefined)" reading="14.1 ×10⁻⁶ cm/s"
compound="Cc1cc(Nc2nc(CC(C)NC3CC(C)(C)NC(C)(C)C3)ns2)no1 (centres undefined)" reading="3.7 ×10⁻⁶ cm/s"
compound="Cc1ccc(Nc2nc(CC(C)NC3CC(C)(C)NC(C)(C)C3)ns2)cc1Cl (centres undefined)" reading="39.5 ×10⁻⁶ cm/s"
compound="Cc1ccc(Nc2nc(CC(C)NC3CC(C)(C)NC(C)(C)C3)ns2)cc1 (centres undefined)" reading="22.8 ×10⁻⁶ cm/s"
